biological target: human α4β2 nAChR (Homo sapiens, UniProt P17787+P43681); experiment: two-electrode voltage clamp on human α4β2 nAChR expressed in Xenopus laevis oocytes; type: cell-based; set-up: expressed in transfected cells; host or cells: Xenopus laevis oocytes (nuclear cDNA injection); conditions: Xenopus laevis oocytes, -60 mV, mean ± SEM of four to five experiments; read-out: α4β2 EC50
Sequence (P43681 29-627 limits assumed): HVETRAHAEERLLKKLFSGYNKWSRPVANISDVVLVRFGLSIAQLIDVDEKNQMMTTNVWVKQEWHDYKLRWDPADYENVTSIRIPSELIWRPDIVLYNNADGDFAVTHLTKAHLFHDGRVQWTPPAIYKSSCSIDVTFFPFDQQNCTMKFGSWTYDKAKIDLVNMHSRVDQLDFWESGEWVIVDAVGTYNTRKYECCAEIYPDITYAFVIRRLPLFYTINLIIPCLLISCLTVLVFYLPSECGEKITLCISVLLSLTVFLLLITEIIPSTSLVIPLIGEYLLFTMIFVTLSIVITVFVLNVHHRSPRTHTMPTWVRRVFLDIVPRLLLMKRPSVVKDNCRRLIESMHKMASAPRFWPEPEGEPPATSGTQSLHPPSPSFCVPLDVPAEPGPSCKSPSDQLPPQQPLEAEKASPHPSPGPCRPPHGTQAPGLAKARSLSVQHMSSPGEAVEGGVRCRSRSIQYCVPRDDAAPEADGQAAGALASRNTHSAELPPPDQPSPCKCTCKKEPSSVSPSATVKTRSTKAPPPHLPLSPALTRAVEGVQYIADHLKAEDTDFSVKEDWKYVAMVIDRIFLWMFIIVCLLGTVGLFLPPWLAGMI
Sequence (P17787 26-502): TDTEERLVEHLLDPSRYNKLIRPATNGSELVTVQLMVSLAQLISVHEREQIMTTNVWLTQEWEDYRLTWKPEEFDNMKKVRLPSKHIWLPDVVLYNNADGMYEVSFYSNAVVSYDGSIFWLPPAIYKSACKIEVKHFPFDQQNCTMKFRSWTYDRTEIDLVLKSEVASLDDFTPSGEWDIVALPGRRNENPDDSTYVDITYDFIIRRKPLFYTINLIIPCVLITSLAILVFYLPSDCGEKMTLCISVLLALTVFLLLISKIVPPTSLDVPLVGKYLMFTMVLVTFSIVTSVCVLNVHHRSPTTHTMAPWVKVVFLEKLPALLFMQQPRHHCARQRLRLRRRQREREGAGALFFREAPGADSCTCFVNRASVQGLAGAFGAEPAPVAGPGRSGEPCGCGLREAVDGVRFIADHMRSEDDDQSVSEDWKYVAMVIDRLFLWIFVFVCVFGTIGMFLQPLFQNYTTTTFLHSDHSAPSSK
Below, each entry is listed with its recorded pEC50.
// pEC50 is dimensionless: -log10 of concentration (M)

Example results:
CN1CCC[C@H]1COc1cccc(Cl)c1 : 4.20
CN1CCC[C@H]1COc1cccc(N)c1 : 4.97

Here is the next item to consider.
Query :: What does the record list as pEC50 for `CN1CCC[C@H]1COc1ccccc1` ?
Result :: 4.16
